Values compiled from patent US9969755B2.

Assay: Absorption and steady-state fluorescence, fluorescence quantum yield in acetonitrile
Type: physicochemical
Details: acetonitrile, room temperature
Item-by-item account of em λmax
OBSERVATION TYPE: em λmax

- MOLECULE: "CC1=C(Br)C(C)=[N+]2C1=C(C)c1c(C)c(Br)c(C)n1[B-]2(F)F"
  OBSERVED VALUE: "535 nm"
- MOLECULE: "CC1=C(I)C(C)=[N+]2C1=C(C)c1c(C)c(I)c(C)n1[B-]2(F)F"
  OBSERVED VALUE: "545 nm"
- MOLECULE: "CC(=O)OCC1=C2C(C)=C(Br)C(C)=[N+]2[B-](F)(F)n2c(C)c(Br)c(C)c21"
  OBSERVED VALUE: "562 nm"
- MOLECULE: "CC1=C(Br)C(C)=[N+]2C1=C(CC1(C)CCc3c(C)c(O)c(C)c(C)c3O1)c1c(C)c(Br)c(C)n1[B-]2(F)F (stereo not drawn)"
  OBSERVED VALUE: "557.4 nm"
- MOLECULE: "CC1=C(I)C(C)=[N+]2C1=C(COC(=O)C1(C)CCc3c(C)c(O)c(C)c(C)c3O1)c1c(C)c(I)c(C)n1[B-]2(F)F (racemic)"
  OBSERVED VALUE: "576 nm"
- MOLECULE: "CC(=O)OCC1=C2C(C)=C(I)C(C)=[N+]2[B-](F)(F)n2c(C)c(I)c(C)c21"
  OBSERVED VALUE: "572 nm"

* * *

Assay: Laser flash photolysis: triplet excited state decay and quenching
Assay type: physicochemical
Conditions: Ar saturated acetonitrile
OBSERVATION TYPE: kq (triplet quenching rate constant) Q = PMHC

- COMPOUND: "CC(=O)OCC1=C2C(C)=C(Br)C(C)=[N+]2[B-](F)(F)n2c(C)c(Br)c(C)c21"
  OBSERVED VALUE: "2.23 ± 0.05 × 10^8 M^−1s^−1"
- COMPOUND: "CC(=O)OCC1=C2C(C)=C(I)C(C)=[N+]2[B-](F)(F)n2c(C)c(I)c(C)c21"
  OBSERVED VALUE: "3.95 ± 0.07 × 10^8 M^−1s^−1"
- COMPOUND: "CC1=C(I)C(C)=[N+]2C1=C(C)c1c(C)c(I)c(C)n1[B-]2(F)F"
  OBSERVED VALUE: "1.20 ± 0.05 × 10^8 M^−1s^−1"
- COMPOUND: "CC1=C(Br)C(C)=[N+]2C1=C(C)c1c(C)c(Br)c(C)n1[B-]2(F)F"
  OBSERVED VALUE: "1.29 ± 0.04 × 10^8 M^−1s^−1"
- COMPOUND: "CC1=C(I)C(C)=[N+]2C1=C(COC(=O)C1(C)CCc3c(C)c(O)c(C)c(C)c3O1)c1c(C)c(I)c(C)n1[B-]2(F)F (racemic)"
  OBSERVED VALUE: "5.90 ± 0.09 × 10^8 M^−1s^−1"

* * *

Assay: Gibbs free energy for photoinduced electron transfer (equation 6)
Type: physicochemical
Details: PeT from chromanol to triplet excited state, endergonic
OBSERVATION TYPE: ΔGeT (Triplet), Gibbs free energy for PeT (eV)

- SMILES STRUCTURE: "CC1=C(Br)C(C)=[N+]2C1=C(C)c1c(C)c(Br)c(C)n1[B-]2(F)F"
  OBSERVED VALUE: 0.282
- SMILES STRUCTURE: "CC(=O)OCC1=C2C(C)=C(I)C(C)=[N+]2[B-](F)(F)n2c(C)c(I)c(C)c21"
  OBSERVED VALUE: 0.269
- SMILES STRUCTURE: "CC1=C(I)C(C)=[N+]2C1=C(C)c1c(C)c(I)c(C)n1[B-]2(F)F"
  OBSERVED VALUE: 0.262
- SMILES STRUCTURE: "CC(=O)OCC1=C2C(C)=C(Br)C(C)=[N+]2[B-](F)(F)n2c(C)c(Br)c(C)c21"
  OBSERVED VALUE: 0.287
